Reference source: PubChem BioAssay (NCATS)

Experiment: P-glycoprotein substrates identified in KB-8-5-11 adenocarcinoma cell line, qHTS therapeutic library screen (AID 1346987); also: nearly all actives have a fitted effect of over 65% in size; also: potency is read from the fitted curve at half-maximal effect
Conditions: KB-8-5-11 (P-gp overexpressing) viability, CellTiter-Glo, 72 h; series mostly up to 44.5 µM
Description: The ATP-binding cassette transporters P-glycoprotein (P-gp) is known to limit brain penetration of many chemotherapy drugs. […] All cell lines were plated into 1536-well plates at 500 cells/well in 5 uL media. […] CellTiter-Glo reagent (Promega) was dispensed into the wells, incubated for 5 min and luminescence was read on a ViewLux instrument (Perkin-Elmer). […]
Results filed as inconclusive are left out. The source made the active and inactive calls. Calls follow the shape of the dose curve; as a rule, active = well fitted inhibition curve with a large enough effect; inconclusive = small, poorly fitted or top-dose-only effect; inactive = flat fitted curve, though single readings scatter.
Measured Attribute: Potency

CN1CCC(c2c(O)cc(O)c3c(=O)cc(-c4ccccc4Cl)oc23)C1CO (stereo not drawn)    5.17 µM (active)
CCCCCCCCCCCCCC#CC(=O)[C@@H]1COC(C)(C)N1C(=O)OC(C)(C)C    inactive
O=C1OC(/C=C/c2ccccc2)=NC/1=C\c1cccnc1    inactive
